Observed MEAN CpLDH INHIBITION (%) values for recombinant CpLDH protein (Cryptosporidium parvum, UniProt Q9GT92, F198L/K295E/R251K) are listed in what follows.
I only need the number, in %, no unit after it.

compound	value unit	MEAN CpLDH INHIBITION (%)
Cc1ccc(S(=O)(=O)SC/C=C/CSS(=O)(=O)c2ccc(C)cc2)cc1	%	-8.09
C=C(C)[C@@H]1CC[C@]2(C)CC[C@]3(C)[C@H](CC[C@@H]4[C@@]5(C)CC[C@H](O)C(C)(C)[C@@H]5CC[C@]43C)[C@@H]12	%	-42.73
COc1cc2c(c(OC)c1OC)-c1ccc(OC)c(=O)cc1[C@@H](NC(=O)c1ccccc1)CC2	%	-43.24
COC(=O)C1CCC(=O)N1C(c1ccc(OC)cc1)c1cc(OC)c(OC)c(OC)c1 (centres unmarked)	%	-14.54
O=[n+]1c2c(n([O-])c3ccccc31)-c1cccc3cccc-2c13	%	-23.17
COC1CC(C)C(OC)c2cc(O)cc(c2O)NC(=O)/C(C)=C\C=C/C(C)C(OC(N)=O)/C(C)=C\C(C)C1OC (centres unmarked)	%	-19.04
Cc1c(Cl)cccc1NC(=O)CC1Sc2ccccc2NC1=O (centres unmarked)	%	-17.78

Now take the following compound into account.
So what MEAN CpLDH INHIBITION (%) did `C[Si](C)(CN)CN.[Cl][Pt][Cl]` get with recombinant CpLDH protein (Cryptosporidium parvum, UniProt Q9GT92, F198L/K295E/R251K)? -0.38

====

Target: recombinant CpLDH protein (Cryptosporidium parvum, UniProt Q9GT92, F198L/K295E/R251K)
property measured: MEAN CpLDH INHIBITION (%)
Numbers only; they are read as %.

These solved cases illustrate the format of a correct answer.
compound	property measured	reported value
COc1ccc(NC(=O)C(=O)/C=C(\O)c2ccccc2)cc1 [NSC658709]	MEAN CpLDH INHIBITION (%)	-17.00
COC(=O)[C@@]12OC[C@]34[C@H]([C@@H](O)[C@@H]1O)[C@@]1(C)CC(=O)C(O)=C(C)[C@@H]1C[C@H]3OC(=O)[C@H](OC(=O)/C=C(\C)C(C)C)[C@@H]24 [NSC165563]	MEAN CpLDH INHIBITION (%)	-22.46
O=[N+]([O-])c1cccc2c(N=Nc3ccc4ccccc4c3O)c(O)cc(S(=O)(=O)O)c12.[Na+] [NSC85561]	MEAN CpLDH INHIBITION (%)	73.45
CCCN(CCC)C(=S)Sc1nc(C)nc(N2CCN(c3nc(C)nc(SC(=S)N(CCC)CCC)c3[N+](=O)[O-])CC2)c1[N+](=O)[O-] [NSC675593]	MEAN CpLDH INHIBITION (%)	-141.86
O=C(c1nc2ccc(Cl)cc2[nH]c1=O)C(O)c1ccc2c(c1)OCO2 (centres unmarked) [NSC642649]	MEAN CpLDH INHIBITION (%)	-27.23
O=S1(=O)OCCOS(=O)(=O)C1Cc1ccccc1 [NSC634863]	MEAN CpLDH INHIBITION (%)	-18.12
N#CC1CC(c2ccccc2)Nc2cc(Cl)ccc2N1 (centres unmarked) [NSC155595]	MEAN CpLDH INHIBITION (%)	-11.00

--- query ---
Consider the compound shown here: COc1cc(O)c(Cc2ccccc2O)c(O)c1C(=O)CCc1ccccc1 [NSC241906] What is its recorded MEAN CpLDH INHIBITION (%)? -0.38
